System: MDA-MB-468
EXPERIMENT_DESCRIPTION: normalised response (% of control), CellTiter-Glo; higher = more viable cells (100 = DMSO, 0 = benzethonium chloride kill control)
RUN_CONDITIONS: incubation time: 72 h
PROPERTY: normalised response (%)

> print(dat)
                                   molecule  endpoint.result
1  COc1ccc(-c2ccc3c(N4CCOC[C@@H]4C)nc(N4CCOC[C@@H]4C)nc3n2)cc1CO [AZD8055] (1000 nM)             23.6
2  NS(=O)(=O)OC[C@@H]1C[C@@H](n2ccc3c(N[C@H]4CCc5ccccc54)ncnc32)C[C@@H]1O [Pevonedistat] (1 nM)             96.7
3  O=C1NC(=O)[C@@H](c2cn3c4c(cccc24)CCC3)[C@@H]1c1c[nH]c2ccccc12 [Tivantinib] (1 nM)              104

---

Catalogue of compounds with associated EC50, CellTiter-Glo
System: SK-BR-3
RUN_CONDITIONS: 72 h
PROPERTY: EC50, CellTiter-Glo (nM)

COMPOUND	PROPERTY	ENDPOINT_RESULT
C/C(=C\c1csc(C)n1)[C@@H]1C[C@@H]2O[C@]2(C)CCC[C@H](C)[C@H](O)[C@@H](C)C(=O)C(C)(C)[C@@H](O)CC(=O)O1 [Patupilone]	EC50, CellTiter-Glo	38.9
NS(=O)(=O)OC[C@@H]1C[C@@H](n2ccc3c(N[C@H]4CCc5ccccc54)ncnc32)C[C@@H]1O [Pevonedistat]	EC50, CellTiter-Glo	25.7
CO[C@H]1C[C@@H]2CC[C@@H](C)[C@@](O)(O2)C(=O)C(=O)N2CCCC[C@H]2C(=O)O[C@H]([C@H](C)C[C@@H]2CC[C@@H](OCCO)[C@H](OC)C2)CC(=O)[C@H](C)/C=C(\C)[C@@H](O)[C@@H](OC)C(=O)[C@H](C)C[C@H](C)/C=C/C=C/C=C/1C [Everolimus]	EC50, CellTiter-Glo	0.49
CCCCCCCCc1ccc(CCC(N)(CO)CO)cc1 [Fingolimod]	EC50, CellTiter-Glo	3330
CN1CCN(CCOc2cc(OC3CCOCC3)c3c(Nc4c(Cl)ccc5c4OCO5)ncnc3c2)CC1 [Saracatinib]	EC50, CellTiter-Glo	2120

---

Test system: DU-4475
EXPERIMENT_DESCRIPTION: normalised viability (% of control), CellTiter-Blue; higher = more viable cells (about 100 = DMSO control)
RUN_CONDITIONS: 300 nM; incubation time: 72 h
PROPERTY: normalised viability

COMPOUND	PROPERTY	ENDPOINT_RESULT
CC(C)(C#N)c1cc(Cn2cncn2)cc(C(C)(C)C#N)c1 [Anastrozole]	normalised viability	83.5%
CCCCCCCCc1ccc(CCC(N)(CO)CO)cc1 [Fingolimod]	normalised viability	99.3%
CC[C@]1(O)C[C@H]2CN(CCc3c([nH]c4ccccc34)[C@@](C(=O)OC)(c3cc4c(cc3OC)N(C=O)[C@H]3[C@@](O)(C(=O)OC)[C@H](OC(C)=O)[C@]5(CC)C=CCN6CC[C@]43[C@@H]65)C2)C1 [Vincristine]	normalised viability	12%
CNNCc1ccc(C(=O)NC(C)C)cc1 [Procarbazine]	normalised viability	83.2%
O=C(O)CCCc1ccc(N(CCCl)CCCl)cc1 [Chlorambucil]	normalised viability	90.9%

---

Tested on: BT-474
EXPERIMENT_DESCRIPTION: normalised response (% of control), CellTiter-Glo; higher = more viable cells (100 = DMSO, 0 = benzethonium chloride kill control)
RUN_CONDITIONS: incubation time: 72 h
PROPERTY: normalised response (%)

> print(dat)
                                   compound  readout.unit  endpoint.result
1  Cn1c(=O)n(-c2ccc(C(C)(C)C#N)cc2)c2c3cc(-c4cnc5ccccc5c4)ccc3ncc21 [Dactolisib] (10 nM)             %             80.5
2  CN(C)CCN1C(=O)c2cccc3cc(N)cc(c23)C1=O [Amonafide] (100 nM)             %              106
3  CN(C)C[C@@H]1CCn2cc(c3ccccc32)C2=C(C(=O)NC2=O)c2cn(c3ccccc23)CCO1 [Ruboxistaurin] (100 nM)             %             99.5
4  CCCCCCCCc1ccc(CCC(N)(CO)CO)cc1 [Fingolimod] (100 nM)             %             99.9

---

Tested on: SK-BR-3
EXPERIMENT_DESCRIPTION: normalised response (% of control), CellTiter-Glo; higher = more viable cells (100 = DMSO, 0 = benzethonium chloride kill control)
RUN_CONDITIONS: incubation time: 72 h
Classification field: enter Satisfied for normalised response values not below 20%, Not satisfied for values below it.

COMPOUND	ANSWER_LABEL
CN(C)C[C@@H]1CCn2cc(c3ccccc32)C2=C(C(=O)NC2=O)c2cn(c3ccccc23)CCO1 [Ruboxistaurin] (10000 nM)	Not satisfied
COc1ccc(-c2ccc3c(N4CCOC[C@@H]4C)nc(N4CCOC[C@@H]4C)nc3n2)cc1CO [AZD8055] (10000 nM)	Not satisfied
Nc1ncnc2c1c(COc1cccc(Cl)c1)nn2C1CCOCC1 (10000 nM)	Satisfied
CO[C@H]1C[C@@H]2CC[C@@H](C)[C@@](O)(O2)C(=O)C(=O)N2CCCC[C@H]2C(=O)O[C@H]([C@H](C)C[C@@H]2CC[C@@H](OCCO)[C@H](OC)C2)CC(=O)[C@H](C)/C=C(\C)[C@@H](O)[C@@H](OC)C(=O)[C@H](C)C[C@H](C)/C=C/C=C/C=C/1C [Everolimus] (100 nM)	Satisfied
O=C1NC(=O)[C@@H](c2cn3c4c(cccc24)CCC3)[C@@H]1c1c[nH]c2ccccc12 [Tivantinib] (1000 nM)	Not satisfied
Cc1ccc(NC(=O)c2ccc(CN3CCN(C)CC3)cc2)cc1Nc1nccc(-c2cccnc2)n1 [Imatinib] (10000 nM)	Satisfied
Nc1nc(OCc2cc(Br)cs2)c2[nH]cnc2n1 [Lomeguatrib] (10000 nM)	Satisfied
CCCCCCCCc1ccc(CCC(N)(CO)CO)cc1 [Fingolimod] (10000 nM)	Not satisfied

---

Test system: CAL-120
EXPERIMENT_DESCRIPTION: normalised viability (% of control), CellTiter-Blue; higher = more viable cells (about 100 = DMSO control)
RUN_CONDITIONS: 10000 nM; incubation time: 72 h
PROPERTY: normalised viability (%)

> print(dat)
                                   compound  subject.of.test  endpoint.result
1  CN(C)C[C@@H]1CCn2cc(c3ccccc32)C2=C(C(=O)NC2=O)c2cn(c3ccccc23)CCO1 [Ruboxistaurin]          CAL-120             38.9
2  CN(C)CCN1C(=O)c2cccc3cc(N)cc(c23)C1=O [Amonafide]          CAL-120             24.3
3  CCCCCCCCc1ccc(CCC(N)(CO)CO)cc1 [Fingolimod]          CAL-120             2.23
4  O=C(O)CCCc1ccc(N(CCCl)CCCl)cc1 [Chlorambucil]          CAL-120               91

---

Test system: BT-549
EXPERIMENT_DESCRIPTION: drug sensitivity score (DSS), CellTiter-Glo (DSS (AUC-based score)); higher = stronger drug effect (viability inhibition or cytotoxicity); extreme values may be limits of the assay
RUN_CONDITIONS: incubation time: 72 h
Given measured drug sensitivity score, output true if it is greater than or equal to 4 and false if not.

COMPOUND	ANSWER_LABEL
CN1CCN(CCOc2cc(OC3CCOCC3)c3c(Nc4c(Cl)ccc5c4OCO5)ncnc3c2)CC1	false
O=C1NC(=O)[C@@H](c2cn3c4c(cccc24)CCC3)[C@@H]1c1c[nH]c2ccccc12 [Tivantinib]	false
CN(C)C[C@@H]1CCn2cc(c3ccccc32)C2=C(C(=O)NC2=O)c2cn(c3ccccc23)CCO1	true
O=C(O)CCCc1ccc(N(CCCl)CCCl)cc1	false
Cn1c(=O)n(-c2ccc(C(C)(C)C#N)cc2)c2c3cc(-c4cnc5ccccc5c4)ccc3ncc21	true
CO[C@H]1C[C@@H]2CC[C@@H](C)[C@@](O)(O2)C(=O)C(=O)N2CCCC[C@H]2C(=O)O[C@H]([C@H](C)C[C@@H]2CC[C@@H](OCCO)[C@H](OC)C2)CC(=O)[C@H](C)/C=C(\C)[C@@H](O)[C@@H](OC)C(=O)[C@H](C)C[C@H](C)/C=C/C=C/C=C/1C	true
Cc1ccc(NC(=O)c2ccc(CN3CCN(C)CC3)cc2)cc1Nc1nccc(-c2cccnc2)n1	false
